Test system: non-small cell lung cancer cell line H460
Assay: In vitro human cancer cell line cytotoxicity (proliferation) assay in H460, CellTiter-Glo, 72 hours
Assay type: cell-based
Conditions: Homo sapiens, NCI-H460, 72 h, H460 cells, DMSO condition (no AKR1C3 inhibitor), read-out: CTG H460: Avg IC50 (nM) [Assay Condition: DMSO]
IC50 reference

Compound	IC50
C[C@@H](OP(=O)(N1CC1)N1CC1)c1cc2cc(Oc3ccc4c(c3)OC(F)(F)O4)c([N+](=O)[O-])cc2o1	< 10 nM
CC(OP(=O)(N1CC1)N1CC1)c1cc(Oc2ccc(C(=O)N(C)C)cc2)c([N+](=O)[O-])cc1Cl (centres unmarked)	< 10 nM
CN(C)C(=O)c1cccc(Oc2c([N+](=O)[O-])ccc3c2CCC3OP(=O)(N2CC2)N2CC2)c1 (single isomer, unassigned)	< 10 nM
O=[N+]([O-])c1ccc2c(c1Oc1cccc(-c3ncc(F)cn3)c1)CCC2OP(=O)(N1CC1)N1CC1 (centres unmarked)	10 to 50 nM
C[C@@H]1CN1P(=O)(OCc1ccc([N+](=O)[O-])c(Oc2cccc(C(=O)N(C)C)c2)c1)N1C[C@H]1C (some centres unmarked)	< 10 nM
O=[N+]([O-])c1ccc2c(c1Oc1cccc(-c3cc(F)nn3CCO)c1)CC[C@@H]2OP(=O)(N1CC1)N1CC1	< 10 nM
O=[N+]([O-])c1cc2c(cc1Oc1ccc(-c3ccccc3)nc1)C(OP(=O)(N1CC1)N1CC1)CC2 (centres unmarked)	< 10 nM
O=C(NC1CCC1)c1ccc(Oc2cc3c(cc2[N+](=O)[O-])CCC3OP(=O)(N2CC2)N2CC2)cc1 (centres unmarked)	< 10 nM
Cn1c(=O)oc2ccc(Oc3c([N+](=O)[O-])ccc4c3CCC4OP(=O)(N3CC3)N3CC3)cc21 (centres unmarked) [Example 378]	< 10 nM
O=[N+]([O-])c1ccc2c(c1Oc1cncc(C3CC3)c1)CC[C@H]2OP(=O)(N1CC1)N1CC1	< 10 nM
Cc1cnc(-c2cccc(Oc3c([N+](=O)[O-])ccc4c3CC[C@@H]4OP(=O)(N3CC3)N3CC3)c2)o1	10 to 50 nM
CN1Cc2cc(Oc3c([N+](=O)[O-])ccc4c3CCC4OP(=O)(N3CC3)N3CC3)ccc2C1=O (single isomer, unassigned)	< 10 nM
O=[N+]([O-])c1ccc2c(c1Oc1ccc(-c3ncc(F)cn3)c(F)c1)CC[C@H]2OP(=O)(N1CC1)N1CC1	10 to 50 nM
Cn1cc(Oc2cc(Oc3c([N+](=O)[O-])ccc4c3CC[C@@H]4OP(=O)(N3CC3)N3CC3)ccc2F)cn1	< 10 nM

----------
The entries below are paired with their reported IC50.
Test system: non-small cell lung cancer cell line H460
Experiment: In vitro human cancer cell line cytotoxicity (proliferation) assay in H460, CellTiter-Glo, 72 hours
Format: cell-based
Conditions: Homo sapiens, NCI-H460, 72 h, H460 cells, DMSO condition (no AKR1C3 inhibitor), read-out: CTG H460: Avg IC50 (nM) [Assay Condition: DMSO]
Property: IC50

Molecule	Property	Data Value
O=[N+]([O-])c1ccc2c(c1Oc1ccc(F)c(-n3cccn3)c1)CC[C@@H]2OP(=O)(N1CC1)N1CC1 (single isomer, unassigned)	IC50	< 10 nM
O=[N+]([O-])c1ccc2c(c1Oc1ccc(-c3ccc(F)cn3)c(F)c1)CCC2OP(=O)(N1CC1)N1CC1 (stereo not drawn)	IC50	< 10 nM
C[C@H]1CN1P(=O)(OC(c1ccc([N+](=O)[O-])c(Oc2cccc(C(=O)N(C)C)c2)c1)C(F)(F)F)N1C[C@@H]1C (stereo partly drawn) [Example 227]	IC50	10 to 50 nM
O=[N+]([O-])c1ccc2c(c1Oc1ccccc1)CCC2OP(=O)(N1CC1)N1CC1 (stereo not drawn)	IC50	10 to 50 nM
CC(C)C1CN1P(=O)(OCc1ccc([N+](=O)[O-])c(Oc2cccc(C(=O)N(C)C)c2)c1)N1CC1C(C)C (stereo not drawn)	IC50	≥ 100 nM
O=[N+]([O-])c1ccc2c(c1Oc1ccc(F)c(-n3cc(F)cn3)c1)CC[C@H]2OP(=O)(N1CC1)N1CC1	IC50	< 10 nM
O=[N+]([O-])c1ccc2c(c1Oc1cc(F)cc(-c3ncc(F)cn3)c1)CC[C@@H]2OP(=O)(N1CC1)N1CC1	IC50	10 to 50 nM
COc1ccc(Oc2c([N+](=O)[O-])ccc3c2CC[C@@H]3OP(=O)(N2CC2)N2CC2)cc1-c1ncc(F)cn1	IC50	< 10 nM
C[C@H](OP(=O)(N1CC1)N1CC1)c1cc2cc(Oc3cccc(OC(F)(F)F)c3)c([N+](=O)[O-])cc2o1 (single isomer, unassigned)	IC50	< 10 nM
O=[N+]([O-])c1cc2c(cc1Oc1ccc(-c3ccncc3)cc1)C(OP(=O)(N1CC1)N1CC1)CC2 (stereo not drawn)	IC50	< 10 nM
CN1CC(=O)N(c2cccc(Oc3c([N+](=O)[O-])ccc4c3CCC4OP(=O)(N3CC3)N3CC3)c2)CC1=O (stereo not drawn)	IC50	10 to 50 nM
O=[N+]([O-])c1ccc2c(c1Oc1cccc(-n3ncnn3)c1)CC[C@@H]2OP(=O)(N1CC1)N1CC1	IC50	< 10 nM
O=C1c2cc(Oc3cc4c(cc3[N+](=O)[O-])OCCC4OP(=O)(N3CC3)N3CC3)ccc2CN1C1CC1 (single isomer, unassigned)	IC50	< 10 nM
Cc1cnc(-c2cccc(Oc3c([N+](=O)[O-])ccc4c3CC[C@@H]4OP(=O)(N3CC3)N3CC3)c2)s1	IC50	10 to 50 nM
Cc1ccnc(-c2ccc(Oc3c([N+](=O)[O-])ccc4c3CC[C@@H]4OP(=O)(N3CC3)N3CC3)cc2)n1 (single isomer, unassigned)	IC50	< 10 nM
O=[N+]([O-])c1ccc2c(c1Oc1ccc(-c3ccc(F)cn3)c(F)c1)CC[C@@H]2OP(=O)(N1CC1)N1CC1	IC50	< 10 nM
Cn1cc(-c2cccc(Oc3c([N+](=O)[O-])ccc4c3CCC4OP(=O)(N3CC3)N3CC3)c2)cn1 (single isomer, unassigned)	IC50	10 to 50 nM
CC(OP(=O)(N1CC1)N1CC1)c1cc2cc(Oc3cccc(C(=O)N(C)C)c3)c([N+](=O)[O-])cc2o1 (single isomer, unassigned)	IC50	10 to 50 nM
O=[N+]([O-])c1ccc2c(c1Oc1cccc(-c3cnc[nH]3)c1)CC[C@@H]2OP(=O)(N1CC1)N1CC1	IC50	< 10 nM
O=[N+]([O-])c1ccc2c(c1Oc1ccc(OC3COC3)cc1)CC[C@H]2OP(=O)(N1CC1)N1CC1	IC50	< 10 nM
O=[N+]([O-])c1ccc2c(c1Oc1cccc(OC(F)(F)F)c1)CCC2OP(=O)(N1CC1)N1CC1 (stereo not drawn)	IC50	< 10 nM
O=[N+]([O-])c1ccc2c(c1Oc1cccc(-c3ncccn3)c1)CCC2OP(=O)(N1CC1)N1CC1 (stereo not drawn)	IC50	10 to 50 nM
Cc1ccnc(-c2ccc(Oc3c([N+](=O)[O-])ccc4c3CC[C@@H]4OP(=O)(N3CC3)N3CC3)cc2F)n1	IC50	< 10 nM
Cc1nc2cc(Oc3c([N+](=O)[O-])ccc4c3CC[C@H]4OP(=O)(N3CC3)N3CC3)ccc2n1C	IC50	< 10 nM
CN1CCc2ccc(Oc3cc4c(cc3[N+](=O)[O-])CCC4OP(=O)(N3CC3)N3CC3)cc2C1=O (stereo not drawn)	IC50	10 to 50 nM
O=[N+]([O-])c1ccc2c(c1Oc1cccc(-c3cn[nH]c3)c1)CC[C@@H]2OP(=O)(N1CC1)N1CC1	IC50	< 10 nM
Cn1cnc2ccc(Oc3cc4c(cc3[N+](=O)[O-])CCC4OP(=O)(N3CC3)N3CC3)cc2c1=O (stereo not drawn)	IC50	10 to 50 nM

----------
Tested on: non-small cell lung cancer cell line H460
Experiment: In vitro human cancer cell line cytotoxicity (proliferation) assay in H460, CellTiter-Glo, 72 hours
Type: cell-based
Conditions: Homo sapiens, NCI-H460, 72 h, H460 cells, DMSO condition (no AKR1C3 inhibitor), read-out: CTG H460: Avg IC50 (nM) [Assay Condition: DMSO]
IC50 values for the compounds below.
Property: IC50

Compound	Data Value
CC(OP(=O)(N1CC1)N1CC1)c1cc2cc(Oc3ccc4c(c3)OC(F)(F)O4)c([N+](=O)[O-])cc2o1 (stereo not drawn)	< 10 nM
CC(OP(=O)(N1CC1C)N1CC1C)c1ccc([N+](=O)[O-])c(Oc2cccc(C(=O)N(C)C)c2)c1 (stereo not drawn)	< 10 nM
O=[N+]([O-])c1ccc2c(c1Oc1ccc(-c3ccc(F)cc3)cc1)CCC2OP(=O)(N1CC1)N1CC1 (stereo not drawn)	< 10 nM
O=[N+]([O-])c1ccc2c(c1Oc1ccc(F)c(-c3ncns3)c1)CC[C@@H]2OP(=O)(N1CC1)N1CC1	< 10 nM
O=[N+]([O-])c1ccc2c(c1Oc1cccc(-n3ccc(F)n3)c1)CC[C@@H]2OP(=O)(N1CC1)N1CC1	< 10 nM
O=[N+]([O-])c1cc2c(cc1Oc1cccc(-c3ccccc3)c1)C(OP(=O)(N1CC1)N1CC1)CC2 (single isomer, unassigned)	< 10 nM
O=C(NC1CC1)c1cccc(Oc2c([N+](=O)[O-])ccc3c2CCC3OP(=O)(N2CC2)N2CC2)c1 (stereo not drawn)	< 10 nM
O=[N+]([O-])c1ccc2c(c1Oc1ccc3nccn3c1)CC[C@H]2OP(=O)(N1CC1)N1CC1	10 to 50 nM
O=C(NC1CCC1)c1ccc(Oc2c([N+](=O)[O-])ccc3c2CCC3OP(=O)(N2CC2)N2CC2)cc1 (stereo not drawn)	10 to 50 nM
O=C1OCCN1c1ccc(Oc2cc3c(cc2[N+](=O)[O-])CCC3OP(=O)(N2CC2)N2CC2)cc1 (stereo not drawn)	< 10 nM
CC(C)COc1cc(Oc2c([N+](=O)[O-])ccc3c2CC[C@H]3OP(=O)(N2CC2)N2CC2)ccc1F	< 10 nM
O=C1c2ccc(Oc3c([N+](=O)[O-])ccc4c3CCC4OP(=O)(N3CC3)N3CC3)cc2CN1C1CC1 (stereo not drawn)	< 10 nM
O=[N+]([O-])c1ccc2c(c1Oc1cccc(-c3ccccc3)c1)CCC2OP(=O)(N1CC1)N1CC1 (single isomer, unassigned)	< 10 nM
O=[N+]([O-])c1cc2c(cc1Oc1ccccc1-c1ccccc1)C(OP(=O)(N1CC1)N1CC1)CC2 (stereo not drawn)	≥ 100 nM
O=C(c1cccc(Oc2c([N+](=O)[O-])ccc3c2CCC3OP(=O)(N2CC2)N2CC2)c1)N1CCCOCC1 (stereo not drawn)	10 to 50 nM
CCC1CN1P(=O)(OCc1ccc([N+](=O)[O-])c(Oc2cccc(C(=O)N(C)C)c2)c1)N1CC1CC (stereo not drawn)	< 10 nM
C[C@H]1CN1P(=O)(OC(c1ccc([N+](=O)[O-])c(Oc2cccc(C(=O)N(C)C)c2)c1)C(F)(F)F)N1C[C@@H]1C (single isomer, unassigned) [Example 225]	50 to 100 nM
O=[N+]([O-])c1ccc2c(c1Oc1ccc(F)c(-c3ccccc3)c1)CC[C@@H]2OP(=O)(N1CC1)N1CC1	< 10 nM
O=[N+]([O-])c1ccc2c(c1Oc1cccc(-c3ccccn3)c1)CC[C@H]2OP(=O)(N1CC1)N1CC1	< 10 nM
Cc1ccn(-c2cccc(Oc3c([N+](=O)[O-])ccc4c3CC[C@H]4OP(=O)(N3CC3)N3CC3)c2)n1	< 10 nM
O=[N+]([O-])c1cc2oc(COP(=O)(N3CC3)N3CC3)cc2cc1Oc1cccc(-c2ccccn2)c1	< 10 nM
Cn1nnc(-c2cccc(Oc3c([N+](=O)[O-])ccc4c3CC[C@@H]4OP(=O)(N3CC3)N3CC3)c2)n1	< 10 nM
CN(C)C(=O)c1cccc(Oc2c([N+](=O)[O-])ccc3c2OCCC3OP(=O)(N2CC2)N2CC2)c1 (stereo not drawn)	< 10 nM
O=[N+]([O-])c1ccc2c(c1Oc1ccc(F)c(-n3cncn3)c1)CC[C@@H]2OP(=O)(N1CC1)N1CC1	< 10 nM
Cn1ccc2cc(Oc3c([N+](=O)[O-])ccc4c3CCC4OP(=O)(N3CC3)N3CC3)ccc21 (stereo not drawn)	< 10 nM
O=C(c1cccc(Oc2c([N+](=O)[O-])ccc3c2CCC3OP(=O)(N2CC2)N2CC2)c1)N1CCCCC1 (single isomer, unassigned)	< 10 nM
CN(C)C(=O)c1ccc(Oc2cc3c(cc2[N+](=O)[O-])CCC3OP(=O)(N2CC2)N2CC2)cc1 (single isomer, unassigned)	< 10 nM
